# Tested System: Mineralocorticoid receptor (Rattus norvegicus)
# Sequence (P22199 whole entry): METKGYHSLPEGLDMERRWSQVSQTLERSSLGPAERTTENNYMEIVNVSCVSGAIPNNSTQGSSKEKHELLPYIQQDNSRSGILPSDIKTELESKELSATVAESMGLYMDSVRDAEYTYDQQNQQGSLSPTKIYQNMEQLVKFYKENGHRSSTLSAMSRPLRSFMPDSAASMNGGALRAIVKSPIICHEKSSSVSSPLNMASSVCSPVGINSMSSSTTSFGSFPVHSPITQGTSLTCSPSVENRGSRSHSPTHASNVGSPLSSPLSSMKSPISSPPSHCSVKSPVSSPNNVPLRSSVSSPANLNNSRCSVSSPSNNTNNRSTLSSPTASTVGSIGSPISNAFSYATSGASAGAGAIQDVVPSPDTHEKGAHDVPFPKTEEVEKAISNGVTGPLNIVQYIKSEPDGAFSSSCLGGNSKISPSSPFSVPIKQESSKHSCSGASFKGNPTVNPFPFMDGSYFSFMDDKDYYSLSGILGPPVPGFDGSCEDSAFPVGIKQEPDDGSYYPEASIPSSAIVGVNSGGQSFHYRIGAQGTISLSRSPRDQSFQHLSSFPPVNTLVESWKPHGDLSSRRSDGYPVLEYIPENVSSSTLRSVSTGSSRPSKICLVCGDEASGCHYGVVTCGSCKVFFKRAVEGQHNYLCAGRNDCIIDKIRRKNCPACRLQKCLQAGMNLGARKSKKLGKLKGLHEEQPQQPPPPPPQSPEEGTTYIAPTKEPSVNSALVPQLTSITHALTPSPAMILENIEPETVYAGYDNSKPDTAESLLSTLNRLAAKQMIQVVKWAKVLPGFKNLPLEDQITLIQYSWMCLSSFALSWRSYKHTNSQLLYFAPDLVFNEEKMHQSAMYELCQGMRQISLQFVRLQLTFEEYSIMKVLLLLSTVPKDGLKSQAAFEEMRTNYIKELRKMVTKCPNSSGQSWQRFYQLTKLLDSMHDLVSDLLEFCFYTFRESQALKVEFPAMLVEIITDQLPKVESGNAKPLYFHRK
# Experiment: Displacement of [3H]-Aldosterone from MR in rat renal soluble fraction measured after 18 hrs in presence of glucocorticoid receptor antagonist RU-486 by liquid scintillation counting method
In this section, each of the molecules is paired with its reported pIC50.
Please report pIC50 as the negative decimal logarithm of the molar concentration, giving only the number.

Worked examples follow.
- Molecule: "COc1cc(NC(=O)c2ccc(-c3ccccc3OC(F)(F)F)c(CCN3CC(C)OC(C)C3)c2)ccc1S(N)(=O)=O (stereo not drawn)"
  pIC50: 7.21
- Molecule: "COc1cc(NC(=O)c2ccc(-c3ccccc3OC(F)(F)F)c(CCN(C)C3CC3)c2)ccc1S(N)(=O)=O"
  pIC50: 7.66

Next item in the queue.
Would you kindly share the measured pIC50 for COc1cc(NC(=O)c2ccc(-c3ccccc3C(F)(F)F)c(COC(C)=O)c2)ccc1S(N)(=O)=O ?
7.51
